Experiment summary: E. coli growth modulation, two-sided OD650, primary screen, E. coli filamentation project, strain DRC41, 24 h (AID 1093);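 note: MC1000 strain lacking acrAB efflux and sulA so SOS filamentation is blocked; test concentration not given here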
Details: OD650, 24 h, higher = more signal, called active from +8 up or from −8 down
Could you please report measured z-score for the items listed next?
Give bare numbers.

Take a look at these entries with their results.
{"Compound": "C[C@H]1C2=C3C(CC[C@H]4C(OCc5ccc(F)cc5C(F)(F)F)OC[C@](C)([C@@H]34)N(C(=O)OC(C)(C)C)C2)C(CO)C1CO (stereo partly drawn)", "Reported result": -1.5}
{"Compound": "O=C1NC(=O)C2C1C=CC(C(O)c1c(F)cccc1Cl)N2Nc1ccccn1 (stereo not drawn)", "Reported result": -0.764}

Here is another compound to look at.
input: Suppose we examine the compound O=C1O[C@@H](c2ccccc2)[C@@H](c2ccccc2)N2[C@@H](c3ccc(O)cc3)[C@]3(C(=O)Nc4ccc(C#CCCO)cc43)[C@@H](C(=O)NC[C@H](O)c3ccccc3)[C@H]12 ; what z-score value has been reported?
output: 0.231

* * *

Experiment summary: small-molecule microarray binders of probe aNog, primary screen, biochemical, biotinylated probe, 635/667 nm fluorescence (AID 1115);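 note: probe is biotinylated aNog protein used at 0.15 µg/mL for 1 h at 4 C; z-score combines 667 nm fluorescence of each spot with its signal to noise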
Details: higher = more signal
Cut-off -0.3 on composite z-score, inclusive. At or above means yes (1); below means no (0).

Record excerpt, results attached:
{"Compound": "C[C@H]1C2=C3C(CC[C@H]4C(OCc5ccc(F)cc5C(F)(F)F)OC[C@](C)([C@@H]34)N(C(=O)OC(C)(C)C)C2)C2COC(=O)OCC21 (stereo not given in full)", "Answer label": "no (0)"}
{"Compound": "CO[C@H]1O[C@H](CO)[C@@H](OC(=O)Nc2ccc(Oc3ccccc3)cc2)[C@H](OC(=O)Nc2ccccc2-c2ccccc2)[C@@H]1OC(=O)Nc1ccccc1-c1ccccc1", "Answer label": "yes (1)"}
{"Compound": "C=C(CCCC)C(=O)CC[C@@H](OC(=O)c1ccccc1-c1ccccc1C(=O)O)c1cccc(OCCO)c1", "Answer label": "yes (1)"}

Field: next compound
input: Please tell me: is the compound COc1cc(OC)c(C(O)C2C=CC3C(=O)N(c4ccccc4)C(=O)C3N2Nc2ccc(C#N)cc2)cc1Br (stereo not given) at or over -0.3 in terms of composite z-score?
output: yes (1)

* * *

Experiment summary: cell viability in Huh7 cells, primary screen, cytotoxicity control for HCV replication inhibitor project, CellTiter-Glo luminescence, basal, 48 h (AID 1143);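 note: Huh7 hepatoma cells carrying a hepatitis C replication reporter with no stimulus; test concentration not given here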
Details: Huh7 HCV replicon, higher = more signal, called active from +8 up or from −8 down
Measured parameter: z-score
Give bare numbers.

{"Compound": "C=CC[C@@H](OC(=O)Nc1ccc(OC)cc1)c1ccc(OCCO)cc1", "z-score": -2.05}
{"Compound": "C=C(/C(=C/C[C@@H](OC(=O)c1ccncc1)c1ccccc1OCCO)c1cc(C(=O)OC)ccc1OC)C(C)C", "z-score": -2.43}
{"Compound": "C=C(CCCC)C(=O)CC[C@@H](OC(=O)c1ccccc1-c1ccccc1C(=O)O)c1cccc(OCCO)c1", "z-score": -0.854}

// each listed compound needs a value for z-score
1. CCCc1cccc(=O)o1
2. C=CC[C@@]12N=C(c3ccc(OCCCO)cc3)O[C@@H]1c1ccccc1N(CCS(=O)(=O)c1ccccc1)C2=O

output:
1. -1.62
2. -3.23

* * *

Experiment summary: modulators of S6 phosphorylation in cells, primary screen, cell-based, A549, cytoblot, luminescence, serum-stimulated (AID 1158);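 note: serum-stimulated A549 lung adenocarcinoma cells; signal is phosphorylated S6 detected by cytoblot immunostaining with HRP secondary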
Details: A549 phospho-S6 cytoblot, 5 h, higher = more signal
Cut-off -0.4 on z-score, inclusive. At or above means t; below means f.

input: Please tell me: is the compound CCCC[C@@H]1C[C@H]1[C@@H](NC(=O)c1ccccc1)c1ccc(Cl)cc1 at or over -0.4 in terms of z-score?
output: f

input: Record: COC(=O)C[C@H]1O[C@]2(C(=O)N(C)c3ccccc32)[C@@H](C)[C@@H]1[Si](C)(C)c1ccc(C)cc1
output: t

input: Record: O=C1OCC=C[C@H]2OC34C=CCN(c5ccc(Cl)cc5)C(=O)[C@H]3N(CCCCCO)C(=O)[C@@H]4[C@@H]12 (some centres not stated)
output: f

input: Record: C=CC[C@]1(C(=O)N(C)C)N=C(c2ccc(OCCCO)cc2)O[C@H]1c1ccccc1N=[N+]=[N-]
output: t

input: Record: COC(=O)[C@@]1(Cc2ccccc2)[C@H]2c3cc(C(=O)N4CCCC4)n(Cc4ccsc4Br)c3C[C@H]2CN1C(=O)c1ccccc1
output: t

input: Record: CN1C(=O)C2C=CC(C(O)Cc3ccccc3)N(N(c3ccccc3)c3ccccc3)C2C1=O (configuration not stated)
output: f

input: Record: C[C@H]1C2=C3C(CC[C@H]4C(OCc5ccc(F)cc5C(F)(F)F)OC[C@](C)([C@@H]34)N(C(=O)OC(C)(C)C)C2)C(CO)C1CO (some centres not stated)
output: t

input: Record: CCOC(=O)C[C@H]1[C@H](OC(=O)c2ccc(C(=O)c3ccccc3)cc2)[C@@H](NC(=O)c2ccc3ccccc3c2)c2cc(OCCCO)ccc2N1C(=O)c1ccccc1
output: t

* * *

Experiment summary: binders of probe aFGF10 on microarray, primary screen, stem cell growth factor project, biochemical, small-molecule microarray, fluorescence 635/667 (AID 1071);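 note: score merges 667 nm spot intensity and signal to noise from triplicate slides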
Details: higher = more signal
Could you please report measured composite z-score for the items listed next?
Numbers only.

// each listed compound needs a value for composite z-score
1. CCN(CC)c1ccc(N2CC=CC34O[C@@H]5/C=C\CCC(C)OC(=O)C5[C@H]3C(=O)N(CCO)[C@@H]4C2=O)cc1 (stereo partly specified)
2. CN(C)CCCNC(=O)[C@@]1(C)c2ccccc2C(=O)N(Cc2cc(C(F)(F)F)cc(C(F)(F)F)c2)[C@H]1c1ccc(CO)cc1

output:
1. -0.57
2. -0.404

// each listed compound needs a value for composite z-score
1. CCOC(=O)[C@@H]1[C@@H]2C(=O)N(CC)C(=O)[C@@H]2C[C@@H]1Sc1ccccc1
2. CO[C@H]1O[C@H](CO)[C@@H](OC(=O)c2ccc(Br)cc2)[C@@H]2OC(=O)[C@@H](Cc3ccc4ccccc4c3)C/C=C/C[C@H](Cc3ccc4ccccc4c3)C(=O)O[C@@H]12
3. CC(C)CN1C(=O)[C@@]2(c3ccc([N+](=O)[O-])cc3)CC(=O)N(CC34CC5CC(CC(C5)C3)C4)[C@@H]2c2ccc(CO)cc21
4. COc1ccc([Si](C)(C)[C@H]2[C@H](CCO)O[C@@]3(C(=O)N(Cc4cccc(N5CCCCC5=O)c4)c4ccccc43)[C@@H]2C)cc1

output:
0.712
0.622
-0.34
0.375

// each listed compound needs a value for composite z-score
1. CC=CC(O)C1C=CC2C(=O)N(C)C(=O)C2N1N1CCCCC1 (stereo unspecified)
2. CCCCN1CC=CC23O[C@@H]4C=CCOC(=O)[C@@H]4[C@H]2C(=O)N(C(C)CO)[C@@H]3C1=O (stereo partly specified)
3. COc1cc(OC)c(C(O)C2C=CC3C(=O)N(c4ccccc4)C(=O)C3N2Nc2ccc(C#N)cc2)cc1Br (stereo unspecified)
4. C=CCC(OC(C)=O)[C@@H]1[C@@H](N(Cc2ccc(-c3ccccc3)cc2)C(=O)c2cccc3ccccc23)c2cc(OCCCO)ccc2N1C(=O)Cc1ccc2ccccc2c1 (stereo partly specified)
5. O=c1cccc(-c2cccc(Cl)c2)o1
6. C=CCOC(=O)[C@@H]1[C@H]2C(=O)O[C@H](c3ccccc3)[C@H](c3ccccc3)N2[C@H](c2ccc(OCCOC(=O)[C@H]3C[C@H]4C(=O)N[C@@H](CCCC[N+](C)(C)C)C(=O)N4[C@H]3c3ccc(O)cc3)cc2)[C@@]12C(=O)Nc1ccc(I)cc12
7. CCOC(=O)C[C@H]1[C@H](OC(=O)c2ccc(-c3ccccc3)cc2)[C@@H](NC(=O)c2ccc3ccccc3n2)c2cc(OCCCO)ccc2N1C(=O)c1ccccc1

output:
[0.862, -0.174, 1.17, 0.237, 0.299, 0.528, 0.618]

// each listed compound needs a value for composite z-score
1. CCCNC(=O)[C@@]1(c2ccc([N+](=O)[O-])cc2)CC(=O)N(C2CCCCC2)[C@@H]1c1ccc(CO)cc1I
2. COc1ccc([Si](C)(C)[C@H]2[C@H](CC(=O)N3Cc4ccccc4C[C@H]3CO)O[C@@]3(C(=O)N(Cc4cccc(N5CCCCC5=O)c4)c4ccccc43)[C@@H]2C)cc1

output:
1. 0.599
2. 0.36

* * *

Test system: PRMT1 (protein arginine N-methyltransferase 1)
Experiment summary: PRMT1 binders on small-molecule microarrays, primary screen, biochemical, small-molecule microarray, 635 nm fluorescence (AID 1088);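 note: binding of Prmt1 protein to compounds spotted on small-molecule microarray slides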
Details: small-molecule microarray binding, higher = more signal
Cut-off 1 on composite z-score, inclusive. At or above means y; below means n.

{"Compound": "C=C[C@@H](C)[C@H](OC(=O)Nc1ccc(SC)cc1)c1ccc(OCCO)cc1", "Answer label": "n"}
{"Compound": "CON(C)C(=O)C=C1C[C@@H](c2cccc(Cl)c2)O[C@@H](c2cccc(Cl)c2)O1", "Answer label": "n"}
{"Compound": "CCOC(=O)[C@H]1C/C=C/C[C@H](C(=O)OCC)C(=O)O[C@H]2[C@@H](OC)O[C@H](CO)[C@@H](OC(=O)Nc3ccc(OC)cc3)[C@@H]2OC1=O", "Answer label": "y"}
{"Compound": "CCOC(=O)[C@@H]1[C@@H]2C(=O)N(CC)C(=O)[C@@H]2C[C@@H]1Sc1ccccc1", "Answer label": "n"}
{"Compound": "NC(=O)NCC#Cc1ccc2c(c1)[C@]1(C(=O)N2)[C@H](C(=O)Nc2nc3ccccc3s2)[C@H]2C(=O)O[C@H](c3ccccc3)[C@H](c3ccccc3)N2[C@@H]1c1ccc(O)cc1", "Answer label": "y"}

input: Please tell me: is the compound O=C(N1CCCCC1)[C@@]1(Cc2ccccc2)COC(c2ccc(OCCCO)cc2)=N1 at or over 1 in terms of composite z-score?
output: y

input: Record: COc1cc2c(cc1O)C(C)N(Cc1cc3c(cc1Br)OCO3)CC2 (centres undefined)
output: n

input: Record: COCCOC(=O)N1C(=O)[C@@]2(c3cc(C#CC4=CCCCC4)ccc31)[C@H](C(=O)N1CCN(c3ncccn3)CC1)[C@H]1C(=O)O[C@H](c3ccccc3)[C@H](c3ccccc3)N1[C@@H]2c1ccc(O)cc1
output: y

input: Record: COc1ccc([Si](C)(C)[C@@H]2[C@@H](CCn3cc([C@H](O)c4ccccc4)nn3)O[C@]3(C(=O)N(Cc4ccc(N5CCOC5=O)cc4)c4ccccc43)[C@H]2C)cc1
output: y
